Target: Serine/threonine-protein kinase mTOR (Homo sapiens, UniProt P42345)
Experiment: Inhibition of recombinant N-terminal GST-tagged mTOR-mediated 4E-BP1 phosphorylation after 60 mins by TR-FRET assay
pIC50: −log10 of the molar value.
MEASURED QUANTITY: pIC50

**Q:** Endpoint output: pIC50 of CC(=O)Nc1cn2cc(-c3cnc(Cl)c(NS(=O)(=O)c4ccc(F)cc4)c3)ccc2n1 . Value?
**A:** 8.18

**Q:** Item under review: O=S(=O)(Nc1cc(-c2ccc3nccn3n2)cnc1Cl)c1ccc(F)cc1 . Reported pIC50?
**A:** 7.31

**Q:** Find the recorded pIC50 belonging to O=S(=O)(Nc1cc(-c2ccc3ncsc3c2)cnc1Cl)c1ccc(F)cc1 and report it.
**A:** 7.48

**Q:** Data request, read-out pIC50, for O=S(=O)(Nc1cc(-c2ccc3nc[nH]c3c2)cnc1Cl)c1ccc(F)cc1
**A:** 6.35

**Q:** Given the molecule CC(=O)Nc1nc2ccc(-c3cnc(Cl)c(NS(=O)(=O)c4ccc(F)cc4)c3)cc2[nH]1 , what is its reported pIC50?
**A:** 7.70

(I) Nc1nc2ccc(-c3cnc(Cl)c(NS(=O)(=O)c4ccc(F)cc4)c3)cc2o1
(II) Nc1cn2nc(-c3cnc(Cl)c(NS(=O)(=O)c4ccc(F)cc4)c3)ccc2n1
(III) CC(=O)Nc1nc2ccc(-c3cnc(Cl)c(NS(=O)(=O)c4ccc(F)cc4)c3)cc2o1
(IV) O=S(=O)(Nc1cc(-c2ccc3nccn3c2)cnc1Cl)c1ccc(F)cc1
**Q:** Order the entries by their reported pIC50, beginning at the minimum. Please, when replying, give the labels in the order that was requested.
**A:** IV, III, I, II

---

Biological target: Phosphatidylinositol 4,5-bisphosphate 3-kinase catalytic subunit gamma isoform (Homo sapiens, UniProt P48736)
Sequence (P48736 whole entry, canonical isoform): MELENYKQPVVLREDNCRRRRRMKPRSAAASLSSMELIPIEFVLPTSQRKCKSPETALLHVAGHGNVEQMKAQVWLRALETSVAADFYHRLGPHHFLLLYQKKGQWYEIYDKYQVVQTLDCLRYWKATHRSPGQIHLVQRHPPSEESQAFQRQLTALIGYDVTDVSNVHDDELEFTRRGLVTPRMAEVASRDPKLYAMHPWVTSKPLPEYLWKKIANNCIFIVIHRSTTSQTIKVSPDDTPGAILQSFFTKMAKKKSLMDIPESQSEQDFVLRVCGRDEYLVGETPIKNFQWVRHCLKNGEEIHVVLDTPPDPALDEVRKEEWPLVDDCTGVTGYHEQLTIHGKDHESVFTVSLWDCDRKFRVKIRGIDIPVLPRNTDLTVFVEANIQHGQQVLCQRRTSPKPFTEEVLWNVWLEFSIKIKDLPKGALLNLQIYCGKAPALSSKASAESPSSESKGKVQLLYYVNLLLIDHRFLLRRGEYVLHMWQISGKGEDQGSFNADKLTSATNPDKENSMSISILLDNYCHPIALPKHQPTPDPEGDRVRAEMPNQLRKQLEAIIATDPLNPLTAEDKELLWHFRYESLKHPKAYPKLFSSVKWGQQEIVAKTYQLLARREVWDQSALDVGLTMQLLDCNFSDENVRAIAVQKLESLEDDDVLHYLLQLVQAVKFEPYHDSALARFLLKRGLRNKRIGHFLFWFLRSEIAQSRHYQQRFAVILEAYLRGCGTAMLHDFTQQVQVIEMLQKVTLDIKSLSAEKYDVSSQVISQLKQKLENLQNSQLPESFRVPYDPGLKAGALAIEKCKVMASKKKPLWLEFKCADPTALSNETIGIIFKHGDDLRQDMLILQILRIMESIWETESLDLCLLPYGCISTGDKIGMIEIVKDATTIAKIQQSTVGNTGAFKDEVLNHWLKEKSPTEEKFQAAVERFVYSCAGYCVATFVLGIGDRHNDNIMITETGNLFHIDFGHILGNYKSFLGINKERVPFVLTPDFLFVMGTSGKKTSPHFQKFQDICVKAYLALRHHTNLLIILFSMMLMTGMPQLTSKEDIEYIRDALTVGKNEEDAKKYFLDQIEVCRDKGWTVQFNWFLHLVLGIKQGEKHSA
Assay: Inhibition of human N-terminal His-tagged PI3Kgamma expressed in insect Sf9 cells using PI(4,5)P2 as substrate after 20 mins by alphascreen assay in presence of 8 uM ATP
MEASURED QUANTITY: Ki (nM)
Your answer is read as nM, so omit the unit and give the number.

**Q:** Requested field: Ki. Item: CC(=O)Nc1cn2nc(-c3cnc(Cl)c(NS(=O)(=O)c4ccc(F)cc4)c3)ccc2n1
**A:** 1.9

---

Experiment: in vitro
Details: Sprague-Dawley, rat, liver microsomes
Description: Clearance in Sprague-Dawley rat liver microsomes
MEASURED QUANTITY: microsomal CLint

**Q:** Return reported microsomal CLint; argument: CC(=O)Nc1nc2ccc(-c3cnc(Cl)c(NS(=O)(=O)c4ccc(F)cc4)c3)cc2s1
**A:** < 26 µL/min/mg

---

Assay: AUC in Sprague-Dawley rat at 2 mg/kg, po
Assay type: ADME, organism-based
Set-up: dose 2 mg/kg, route oral
Settings: plasma
MEASURED QUANTITY: AUC (ng·h/mL)
Provide the reading as a plain figure in ng·h/mL.

**Q:** Query: AUC; subject: CC(=O)Nc1cn2nc(-c3cnc(Cl)c(NS(=O)(=O)c4ccc(F)cc4)c3)ccc2n1
**A:** 11500

---

Biological target: Phosphatidylinositol 4,5-bisphosphate 3-kinase catalytic subunit delta isoform (Homo sapiens, UniProt O00329)
Sequence (O00329 whole entry, canonical isoform): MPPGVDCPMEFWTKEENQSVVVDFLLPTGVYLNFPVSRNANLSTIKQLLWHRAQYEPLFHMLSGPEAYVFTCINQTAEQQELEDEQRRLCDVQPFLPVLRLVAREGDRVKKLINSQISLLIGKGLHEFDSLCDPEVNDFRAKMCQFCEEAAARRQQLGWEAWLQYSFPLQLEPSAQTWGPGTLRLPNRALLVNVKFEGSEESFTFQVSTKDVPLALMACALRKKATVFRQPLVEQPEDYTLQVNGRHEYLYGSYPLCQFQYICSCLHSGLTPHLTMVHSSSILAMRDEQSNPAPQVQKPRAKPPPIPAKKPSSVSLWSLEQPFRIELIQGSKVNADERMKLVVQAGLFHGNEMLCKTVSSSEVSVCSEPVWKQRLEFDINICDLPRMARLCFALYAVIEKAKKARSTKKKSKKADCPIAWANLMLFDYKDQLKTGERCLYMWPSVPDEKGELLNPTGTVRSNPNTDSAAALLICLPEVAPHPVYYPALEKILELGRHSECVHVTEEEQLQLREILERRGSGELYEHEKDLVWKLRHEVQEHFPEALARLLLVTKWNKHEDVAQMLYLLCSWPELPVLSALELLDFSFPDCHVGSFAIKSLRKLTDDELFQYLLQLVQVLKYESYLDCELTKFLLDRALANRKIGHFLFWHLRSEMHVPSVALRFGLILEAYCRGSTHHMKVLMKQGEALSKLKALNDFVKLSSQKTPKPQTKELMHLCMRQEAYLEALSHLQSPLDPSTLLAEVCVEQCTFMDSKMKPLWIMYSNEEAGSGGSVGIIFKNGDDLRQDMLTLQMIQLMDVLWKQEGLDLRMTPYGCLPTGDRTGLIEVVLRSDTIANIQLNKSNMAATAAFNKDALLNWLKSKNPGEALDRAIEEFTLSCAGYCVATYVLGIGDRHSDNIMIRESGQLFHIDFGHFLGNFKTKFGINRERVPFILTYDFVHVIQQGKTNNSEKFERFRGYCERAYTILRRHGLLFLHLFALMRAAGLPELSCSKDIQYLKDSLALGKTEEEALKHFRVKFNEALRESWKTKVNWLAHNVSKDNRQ
Assay: Inhibition of human N-terminal His-tagged PI3Kdelta expressed in insect Sf9 cells using PI(4,5)P2 as substrate after 20 mins by alphascreen assay in presence of 8 uM ATP
MEASURED QUANTITY: pKi
Schema: pKi number; meaning minus log10 of the concentration expressed in molar units.

**Q:** Requested field: pKi. Item: CC(=O)Nc1cn2nc(-c3cnc(Cl)c(NS(=O)(=O)c4ccc(F)cc4)c3)ccc2n1
**A:** 9.10
